Reported remaining activity at 100 µM by item:
# targetSystem: E. coli MurC (Escherichia coli, UniProt P17952)
# Sequence (P17952 whole entry): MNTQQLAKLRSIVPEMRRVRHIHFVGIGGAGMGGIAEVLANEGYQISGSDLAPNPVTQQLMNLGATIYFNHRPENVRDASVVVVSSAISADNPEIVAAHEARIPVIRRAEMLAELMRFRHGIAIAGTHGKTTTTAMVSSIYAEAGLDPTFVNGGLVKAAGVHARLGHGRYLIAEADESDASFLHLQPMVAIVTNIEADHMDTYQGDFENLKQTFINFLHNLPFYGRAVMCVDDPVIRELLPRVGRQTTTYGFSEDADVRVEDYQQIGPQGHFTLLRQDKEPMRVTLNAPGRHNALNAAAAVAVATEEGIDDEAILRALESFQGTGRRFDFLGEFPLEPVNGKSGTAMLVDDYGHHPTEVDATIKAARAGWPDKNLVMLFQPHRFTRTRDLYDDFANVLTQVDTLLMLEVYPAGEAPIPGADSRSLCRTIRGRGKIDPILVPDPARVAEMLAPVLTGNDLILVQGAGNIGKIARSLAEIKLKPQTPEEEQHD
# measurementNotes: Malachite green inhibition assay, MurC
# Type: biochemical
# conditionNotes: 0.25 h, Table S1, PKIS screening; read-out: RA [%] at 100 µM MurC
Respond numerically; units are % and should not be typed.

CCOc1ccc2c(-c3ccnc(Nc4cc(OC)cc(C(F)(F)F)c4)n3)cnn2n1 [GW807982X] | 55
NS(=O)(=O)c1cccc(-c2cc3ccncc3cc2OCc2ccccc2)c1 [GSK980961A] | 80
O=C(O[C@H]1CN[C@H](C#Cc2cc3ncnc(Nc4ccc(OCc5cccc(F)c5)c(Cl)c4)c3s2)C1)N1CCOCC1 [GW869810X] | 65
Cc1cc(-c2ccco2)cc(C)c1/C=C/c1cncc(-c2nn[nH]n2)c1 [Compound 1] | 70
COc1cc(C=NNc2ncnc3c2cnn3-c2ccccc2)ccc1O [GW513184X] | 89

Request: Dear colleague, I am looking for the recorded remaining activity at 100 µM of the following molecule: COc1ccc2cc(-c3c(-c4ccncc4)nc(-c4ccc([S+](C)[O-])cc4)n3C)ccc2c1 (stereo not shown) [SB-437013]
Response: 70

Request: Record request: remaining activity at 100 µM value, item COc1cccc(/C=N/Nc2ncnc3c2cnn3-c2cccc(OC)c2)c1 [GW829874X]
Response: 69

Request: Report remaining activity at 100 µM for COc1ccc(Nc2ncc(-c3ccccc3)o2)cc1OC [GW575533A] please.
Response: 79

Request: What value of remaining activity at 100 µM has been recorded for this entry: Cc1ccc(NC(=O)c2ccnc(N3CCCC3)c2)cc1-c1ccc(C(=O)NCC2CC2)cc1 [GW769076X]
Response: 38

Request: What value of remaining activity at 100 µM has been reported for the following molecule? Nc1ccc(C#Cc2cncnc2Nc2ccc(OCc3cccc(F)c3)c(Cl)c2)cc1 [Compound 2]
Response: 43

Request: What measured remaining activity at 100 µM goes with COc1ccc(-c2cc3c(N)ncnc3o2)cc1 [GW642138X] ?
Response: 74

====

# targetSystem: UniProt:P17952
# measurementNotes: Malachite green inhibition assay, MurC
# Format: biochemical
# conditionNotes: 0.25 h, Table S1, PKIS screening; read-out: RA [%] at 100 µM MurC
property: remaining activity at 100 µM (%)
Please reply with the bare figure in % and do not write the unit itself.

Solved entries (count: 6):
CS(=O)(=O)CCNCc1nc(-c2ccc3ncnc(Nc4ccc(F)c(Cl)c4)c3c2)cs1 [GW461104A] | 88
NS(=O)(=O)c1ccc(NN=C2C(=O)Nc3ccc(C(=O)NCCCn4ccnc4)cc32)cc1 [GW290597X] | 63
COc1ccc(COc2ccc(Cc3cnc(N)nc3N)cc2OC)cc1 [GW632580X] | 88
COC(=O)Nc1nc2ccc(S(=O)(=O)c3ccc(NC(=O)Nc4cc(C(F)(F)F)ccc4F)cc3)cc2[nH]1 [GW680908A] | 77
Cc1ccc(C(=O)NC2CC2)cc1-c1ccc2[nH]ncc2c1 [GW820759X] | 63
COc1ccc(-c2coc3ncnc(N)c23)cc1 [GW642125X] | 100

Request: Observed remaining activity at 100 µM on UniProt:P17952 for Fc1ccc(-c2nn3ccccc3c2-c2ccncc2)cc1 [GW434756X] , please.
Response: 74

Request: Observed remaining activity at 100 µM on UniProt:P17952 for Fc1ccc(-c2cc(-c3c[nH]nc3-c3ccccn3)ccn2)cc1 [GW680975X] , please.
Response: 68

Request: Form field - read-out: remaining activity at 100 µM; system: UniProt:P17952; submitted item: NC(=O)Cc1ccccc1Oc1nccc(-c2c(-c3ccc(F)cc3)ncn2C2CCNCC2)n1 [SB-264865]
Response: 66

Request: State its remaining activity at 100 µM on UniProt:P17952: Fc1ccc(-c2ncn(C3CCNCC3)c2-c2ccnc(Oc3ccc(F)c(F)c3)n2)cc1 [SB-253228]
Response: 32

Request: What reported remaining activity at 100 µM corresponds to [O-][S+]1CCN(Cc2ccc(-c3ccc4ncnc(Nc5ccc(OCc6cccc(F)c6)c(Cl)c5)c4c3)o2)CC1 [GW576609A] on UniProt:P17952?
Response: 71

Request: Missing value: remaining activity at 100 µM, UniProt:P17952, entry CCCN(CCS(C)(=O)=O)Cc1ccc(-c2ccc3ncnc(Nc4ccc(OCc5cccc(F)c5)c(Cl)c4)c3c2)o1 [GW621823A] . Fill in?
Response: 36

Request: Form entry - test system: UniProt:P17952; read-out: remaining activity at 100 µM; molecule: COc1cc(Nc2ncc(-c3ccccc3)o2)cc(OC)c1 [GW631581B]
Response: 64

Request: Request - read-out remaining activity at 100 µM | tested on UniProt:P17952 | molecule COC(=O)Nc1nc2ccc(Oc3ccc(NC(=O)Nc4cccc(Cl)c4)cc3)cc2[nH]1 [GW589961A]
Response: 77
